The measured values listed here are drawn from the supplement of paper PMC8728848.

# tested-system: Gal(b1-4)GlcNAc(a1-6)Gal(b1-4)GlcNAc
# method: glycan array binding signal (z-score within array); higher = stronger binding
# test-context: glycan notation: IUPAC condensed, linker removed
The sample as a whole holds a higher share of the strongest signals than the screen did.
Classification scheme (glycan array binding signal (z-score)): bottom end: < -0.4; midrange: ≥ -0.4 and < -0.2; top end: ≥ -0.2

Please indicate the class for Mincle (Homo sapiens), Q9ULY5 (protein) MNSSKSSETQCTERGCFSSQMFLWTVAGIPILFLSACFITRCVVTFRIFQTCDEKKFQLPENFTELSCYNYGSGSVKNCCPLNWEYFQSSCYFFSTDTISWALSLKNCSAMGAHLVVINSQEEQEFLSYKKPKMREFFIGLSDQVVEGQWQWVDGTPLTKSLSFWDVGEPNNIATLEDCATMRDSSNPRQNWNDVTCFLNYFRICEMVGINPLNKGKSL based on its glycan array binding signal (z-score).
bottom end

Please indicate the class for MGL2 (Mus musculus), Q8JZN1 (protein) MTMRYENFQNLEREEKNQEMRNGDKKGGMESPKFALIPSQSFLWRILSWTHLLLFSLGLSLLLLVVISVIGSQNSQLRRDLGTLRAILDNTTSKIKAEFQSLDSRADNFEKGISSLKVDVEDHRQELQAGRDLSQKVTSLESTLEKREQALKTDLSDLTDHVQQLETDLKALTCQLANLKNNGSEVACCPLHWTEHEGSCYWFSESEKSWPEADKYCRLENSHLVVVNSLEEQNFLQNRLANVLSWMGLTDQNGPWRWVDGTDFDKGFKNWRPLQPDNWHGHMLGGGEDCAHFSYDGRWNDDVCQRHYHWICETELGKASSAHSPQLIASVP based on its glycan array binding signal (z-score).
top end

Please indicate the class for AT3G44510(29) (Arabidopsis thaliana), F4J341 (protein) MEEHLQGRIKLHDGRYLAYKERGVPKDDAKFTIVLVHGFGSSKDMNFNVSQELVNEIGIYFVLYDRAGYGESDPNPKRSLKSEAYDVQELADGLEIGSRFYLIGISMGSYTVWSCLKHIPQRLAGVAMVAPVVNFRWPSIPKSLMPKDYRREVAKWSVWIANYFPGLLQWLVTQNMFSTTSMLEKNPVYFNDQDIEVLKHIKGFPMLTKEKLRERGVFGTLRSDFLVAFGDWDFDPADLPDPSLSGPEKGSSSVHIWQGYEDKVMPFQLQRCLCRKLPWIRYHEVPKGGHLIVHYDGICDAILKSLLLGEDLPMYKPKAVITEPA based on its glycan array binding signal (z-score).
midrange

Please indicate the class for DrGRIFIN (Danio rerio), Q6DGJ1 (protein) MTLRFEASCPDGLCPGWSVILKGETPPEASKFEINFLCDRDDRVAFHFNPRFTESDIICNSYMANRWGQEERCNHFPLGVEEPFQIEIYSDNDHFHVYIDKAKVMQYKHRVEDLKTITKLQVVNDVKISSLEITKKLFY based on its glycan array binding signal (z-score).
top end
